Target: UniProtKB O95835
Assay: RBC HotSpot kinase assay (33P-ATP, P81 filter-binding), LATS1
Format: biochemical
Details: Table 28, biochemical kinase assay; read-out: LATS1 IC50
pIC50: −log10 of the molar value.
MEASURED_QUANTITY: pIC50

{"columns": ["MOLECULE", "RECORDED_RESULT"],
 "data": [
  ["Cc1cc(-c2ccnc3[nH]cc(F)c23)cc(F)c1[C@@]1(O)[C@H](C)CN(C(=O)[C@@H](CO)N(C)C)C[C@@H]1C", 8.36],
  ["Clc1c[nH]c2nccc(-c3ccc(C4CCNCC4)cc3)c12", 8.14]
]}

I. C[C@@H]1CN(C(CF)CF)C[C@H](C)C1(O)c1ccc(-c2ccnc3[nH]cc(F)c23)cc1Cl (stereo partly shown)
II. O=S1(=O)CCC(N2CC3(C2)CC(O)(c2c(F)cc(-c4ccnc5[nH]cc(F)c45)cc2F)C3)CC1
### Prompt Of the pair I and II , name the member with the lesser recorded pIC50. Refer to your chosen item by its label in the answer.
### Response II
(II: 7.25, I: 8.52)

###

Target: AKT (Homo sapiens, UniProt P31749)
Sequence (P31749 whole entry): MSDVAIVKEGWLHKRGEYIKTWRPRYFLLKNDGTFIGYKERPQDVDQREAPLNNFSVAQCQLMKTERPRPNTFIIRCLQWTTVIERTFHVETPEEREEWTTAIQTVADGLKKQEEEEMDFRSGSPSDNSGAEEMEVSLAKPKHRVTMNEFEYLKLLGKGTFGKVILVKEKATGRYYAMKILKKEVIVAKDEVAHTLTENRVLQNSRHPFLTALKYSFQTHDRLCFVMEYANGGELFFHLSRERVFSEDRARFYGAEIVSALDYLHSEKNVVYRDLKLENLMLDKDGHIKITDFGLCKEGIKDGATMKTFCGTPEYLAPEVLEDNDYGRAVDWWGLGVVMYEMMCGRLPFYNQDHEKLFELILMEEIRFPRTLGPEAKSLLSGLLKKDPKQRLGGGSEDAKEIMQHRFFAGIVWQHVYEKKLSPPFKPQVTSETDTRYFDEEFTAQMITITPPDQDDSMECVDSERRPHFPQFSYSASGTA
Experiment: RBC HotSpot kinase assay (33P-ATP, P81 filter-binding), AKT
Assay type: biochemical
Details: Table 28, biochemical kinase assay; read-out: AKT IC50
pIC50: −log10 of the molar value.
MEASURED_QUANTITY: pIC50

See these solved cases before continuing.
{"columns": ["SMILES_REPRESENTATION", "STUDY_SYSTEM", "pIC50"],
 "data": [
  ["NCc1ccc(-c2ccnc3[nH]ccc23)cc1Cl", "AKT (Homo sapiens, UniProt P31749)", 6.14],
  ["C[C@@H]1CN(C2CCC2)C[C@H](C)[C@@]1(O)c1ccc(-c2ccnc3[nH]cc(F)c23)cc1Cl", "AKT (Homo sapiens, UniProt P31749)", 6.71]
]}

A. O=C([C@H]1CCCN1)N1CCC(c2ccc(-c3ccnc4[nH]cc(F)c34)cc2Cl)CC1
B. COC(=O)c1c[nH]c2nccc(-c3cc(C)c([C@@]4(O)[C@H](C)CN(C(=O)CN)C[C@@H]4C)c(F)c3)c12
### Prompt Endpoint returns whichever of A and B has the numerically higher pIC50. Refer to your chosen item by its label in the answer.
### Response A

###

Molecular target: LATS1 (Homo sapiens)
Sequence (O95835 whole entry): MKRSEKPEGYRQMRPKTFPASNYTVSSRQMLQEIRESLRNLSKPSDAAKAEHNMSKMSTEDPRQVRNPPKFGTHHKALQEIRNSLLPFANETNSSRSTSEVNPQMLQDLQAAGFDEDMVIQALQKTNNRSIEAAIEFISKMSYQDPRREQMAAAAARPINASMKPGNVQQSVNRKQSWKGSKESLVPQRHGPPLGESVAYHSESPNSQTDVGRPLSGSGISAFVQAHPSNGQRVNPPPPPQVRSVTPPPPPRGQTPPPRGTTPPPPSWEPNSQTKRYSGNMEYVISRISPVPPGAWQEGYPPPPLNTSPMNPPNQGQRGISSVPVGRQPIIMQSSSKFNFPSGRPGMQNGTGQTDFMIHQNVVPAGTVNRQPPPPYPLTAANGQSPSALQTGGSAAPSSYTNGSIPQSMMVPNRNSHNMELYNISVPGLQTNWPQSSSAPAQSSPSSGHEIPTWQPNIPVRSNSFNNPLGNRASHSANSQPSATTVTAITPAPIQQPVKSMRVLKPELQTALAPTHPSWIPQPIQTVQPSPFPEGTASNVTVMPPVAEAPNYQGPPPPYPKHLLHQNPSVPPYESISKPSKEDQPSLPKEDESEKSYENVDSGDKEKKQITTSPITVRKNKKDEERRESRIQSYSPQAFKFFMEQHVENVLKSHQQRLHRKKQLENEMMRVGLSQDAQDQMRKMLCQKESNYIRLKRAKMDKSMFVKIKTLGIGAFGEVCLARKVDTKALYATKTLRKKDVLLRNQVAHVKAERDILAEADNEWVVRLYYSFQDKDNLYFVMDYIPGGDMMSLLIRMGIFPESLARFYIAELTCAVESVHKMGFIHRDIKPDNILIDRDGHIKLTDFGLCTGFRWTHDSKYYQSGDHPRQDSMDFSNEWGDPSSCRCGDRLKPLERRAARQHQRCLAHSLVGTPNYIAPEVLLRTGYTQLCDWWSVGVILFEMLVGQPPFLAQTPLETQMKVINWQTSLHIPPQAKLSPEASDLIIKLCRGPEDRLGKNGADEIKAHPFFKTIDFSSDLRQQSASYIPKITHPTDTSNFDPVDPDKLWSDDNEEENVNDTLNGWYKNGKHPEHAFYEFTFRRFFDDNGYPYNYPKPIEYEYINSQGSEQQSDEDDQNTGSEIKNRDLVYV
Assay: RBC HotSpot kinase assay (33P-ATP, P81 filter-binding), LATS1
Type: biochemical
Details: Table 28, biochemical kinase assay; read-out: LATS1 IC50
MEASURED_QUANTITY: IC50 (µM)

{"columns": ["COMPOUND", "STUDY_SYSTEM", "RECORDED_RESULT"],
 "data": [
  ["Cc1cc(-c2ccnc3[nH]cc(F)c23)ccc1[C@@]1(O)[C@H](C)CN(C(=O)CN)C[C@@H]1C", "LATS1 (Homo sapiens)", 0.0083],
  ["C[C@@H]1CN(C(=O)C2CC(C(F)(F)F)C2)C[C@H](C)C1(O)c1c(F)cc(-c2ccnc3[nH]cc(F)c23)cc1F (stereo partly drawn)", "LATS1 (Homo sapiens)", 0.0353]
]}

1. CCc1cc(-c2ccnc3[nH]cc(F)c23)ccc1[C@@]1(O)[C@H](C)CN(C2CCS(=O)(=O)CC2)C[C@@H]1C
2. NCc1ccc(-c2ccnc3[nH]cc(-c4cccc(Cl)c4)c23)cc1
3. Cc1cc(-c2ccnc3[nH]cc(F)c23)cc(Cl)c1[C@@]1(O)[C@H](C)CN(C2COC2)C[C@@H]1C
4. Cc1nc(-c2ccnc3[nH]cc(F)c23)ccc1[C@@]1(O)[C@H](C)CN(C2CCC2)C[C@@H]1C
### Prompt Hey, quick one: sort these by IC50, largest value first please. Put the labels in the requested order and list them out.
### Response 3, 2, 1, 4
(3: 0.697 µM, 2: 0.034 µM, 1: 0.0116 µM, 4: 0.0061 µM)

P. C[C@@H]1CN(CC(N)=O)C[C@H](C)[C@@]1(O)c1c(F)cc(-c2ccnc3[nH]cc(F)c23)cc1F
Q. O[C@]1(c2ccc(-c3ccnc4[nH]cc(F)c34)cc2Cl)[C@@H]2CC[C@H]1CNC2
R. Cc1cc(-c2ccnc3[nH]cc(F)c23)ncc1CN
### Prompt Hey, quick one: sort these by IC50, largest value first please. Put the labels in the requested order and list them out.
### Response Q, R, P

A. CN(C)C(C)(C)c1ccc(-c2ccnc3[nH]ccc23)cc1
B. NCc1ccc(-c2ccnc3[nH]cc(Cl)c23)cc1Cl
### Prompt Endpoint returns whichever of A and B has the numerically higher IC50. Refer to your chosen item by its label in the answer.
### Response A

I. c1cc(-c2ccc3c(c2)CNC3)c2cc[nH]c2n1
II. Cc1cc(-c2ccnc3[nH]cc(Cl)c23)cc(F)c1[C@@]1(O)[C@H](C)CNC[C@@H]1C
### Prompt Endpoint returns whichever of I and II has the numerically higher IC50. Refer to your chosen item by its label in the answer.
### Response I

A. Cc1cc(-c2ccnc3[nH]cc(F)c23)cc(F)c1C1(O)[C@H](C)CN(C2CCOC2)C[C@@H]1C (stereo partly drawn)
B. NC(=O)c1ccc(-c2ccnc3[nH]ccc23)cc1
C. CN1CCC(O)(c2ccc(-c3ccnc4[nH]cc(F)c34)cc2)CC1
### Prompt Hey, quick one: sort these by IC50, largest value first please. Put the labels in the requested order and list them out.
### Response B, C, A
(B: 0.343 µM, C: 0.028 µM, A: 0.0143 µM)

a. Clc1cc(-c2ccnc3[nH]ccc23)ccc1C1CCNCC1
b. O=C1NCc2cc(-c3ccnc4[nH]ccc34)ccc21
c. Cc1nnc(C2(c3ccc(-c4ccnc5[nH]cc(F)c45)cc3)CCNCC2)o1
d. Cc1cc(-c2ccnc3[nH]cc(F)c23)ccc1[C@@]1(O)[C@H](C)CN(C2COC2)C[C@@H]1C
e. c1cncc(-c2cc(-c3ccnc4[nH]ccc34)ccc2C2CCNCC2)c1
### Prompt Hey, quick one: sort these by IC50, largest value first please. Put the labels in the requested order and list them out.
### Response b, e, c, a, d

P. Fc1cccc(CNCc2ccc(-c3ccnc4[nH]ccc34)cc2)c1
Q. FC(F)(F)Oc1cccc(CNCc2ccc(-c3ccnc4[nH]ccc34)cc2)c1
R. NCc1ccc(-c2cc(-c3ccnc4[nH]cc(F)c34)ccc2C2CCNCC2)cc1
S. C[C@@H]1CN(C)C[C@H](C)[C@@]1(O)c1ccc(-c2ccnc3[nH]cc(F)c23)cc1
T. CC(C)(C)OC(=O)N1CCC(O)(c2ccc(-c3ccnc4[nH]ccc34)cc2)CC1
### Prompt Order the records, beginning with the lowest IC50 and ending with the highest. Put the labels in the requested order and list them out.
### Response R, P, S, Q, T
(R: 0.0043 µM, P: 0.0108 µM, S: 0.0195 µM, Q: 0.167 µM, T: 0.897 µM)

P. Cc1cc(-c2ccnc3[nH]cc(Cl)c23)cc(F)c1[C@@]1(O)[C@H](C)CN(C(=O)CN)C[C@@H]1C
Q. CC(C)c1cc(-c2ccnc3[nH]cc(Cl)c23)ccc1CN
R. C[C@H](N)C(=O)N1C[C@@H](C)C(O)(c2c(F)cc(-c3ccnc4[nH]cc(F)c34)cc2F)[C@@H](C)C1 (stereo partly drawn)
S. COCCN1CCC(c2ccc(-c3ccnc4[nH]cc(F)c34)cc2Cl)CC1
### Prompt Order the records, beginning with the lowest IC50 and ending with the highest. Put the labels in the requested order and list them out.
### Response Q, P, R, S
(Q: 0.0033 µM, P: 0.0076 µM, R: 0.0145 µM, S: 0.029 µM)
